- RUN DESCRIPTION: total protein half-life in vivo (active degradation + dilution); higher = more stable protein
- REPORTED CONDITIONS: E. coli NCM3722 delta-lon; growth: N-lim chemostat; doubling time 6 h
ASSAY ENDPOINT: total protein half-life in vivo
Please don't drop the unit; write it after the number.

RECORD SEQUENCE	total protein half-life in vivo
MVEDILAPGLRVVFCGINPGLSSAGTGFPFAHPANRFWKVIYQAGFTDRQLKPQEAQHLLDYRCGVTKLVDRPTVQANEVSKQELHAGGRKLIEKIEDYQPQALAILGKQAYEQGFSQRGAQWGKQTLTIGSTQIWVLPNPSGLSRVSLEKLVEAYRELDQALVVRGR [P0A9H1]	5.68 h

Next, consider the following sequence.
get_value(item= `MVTFHTNHGDIVIKTFDDKAPETVKNFLDYCREGFYNNTIFHRVINGFMIQGGGFEPGMKQKATKEPIKNEANNGLKNTRGTLAMARTQAPHSATAQFFINVVDNDFLNFSGESLQGWGYCVFAEVVDGMDVVDKIKGVATGRSGMHQDVPKEDVIIESVTVSE` , readout=total protein half-life in vivo) returns 4.83 h

###

- RUN DESCRIPTION: total protein half-life in vivo (active degradation + dilution); higher = more stable protein
- REPORTED CONDITIONS: wild type E. coli NCM3722; growth: C-lim chemostat; doubling time 6 h
ASSAY ENDPOINT: total protein half-life in vivo (h)
Hi! Could you send only the number? It should be in h, unit omitted.

RECORD SEQUENCE	MEASURE UNIT	total protein half-life in vivo
MPKLILASTSPWRRALLEKLQISFECAAPEVDETPRSDESPRQLVLRLAQEKAQSLASRYPDHLIIGSDQVCVLDGEITGKPLTEENARLQLRKASGNIVTFYTGLALFNSANGHLQTEVEPFDVHFRHLSEAEIDNYVRKEHPLHCAGSFKSEGFGITLFERLEGRDPNTLVGLPLIALCQMLRREGKNPLMG [P0A729]	h	5.17

Next, consider the following sequence.
get_value(item= `MAELSDQEMLRYNRQIILRGFDFDGQEALKDSRVLIVGLGGLGCAASQYLASAGVGNLTLLDFDTVSLSNLQRQTLHSDATVGQPKVESARDALTRINPHIAITPVNALLDDAELAALIAEHDLVLDCTDNVAVRNQLNAGCFAAKVPLVSGAAIRMEGQITVFTYQDGEPCYRCLSRLFGENALTCVEAGVMAPLIGVIGSLQAMEAIKMLAGYGKPASGKIVMYDAMTCQFREMKLMRNPGCEVCGQ` , readout=total protein half-life in vivo) returns 6.09

###

- RUN DESCRIPTION: total protein half-life in vivo (active degradation + dilution); higher = more stable protein
- REPORTED CONDITIONS: E. coli NCM3722 delta-clpP delta-lon delta-hslV; growth: N-lim chemostat; doubling time 6 h
// reported total protein half-life in vivo per item
Hi! Could you send only the number? It should be in h, unit omitted.

RECORD SEQUENCE	ASSAY ENDPOINT	MEASURED NUMBER
MKLNIRAQTAQNQHNNSPIVLVHGLFGSLDNLGVLARDLVNDHNIIQVDMRNHGLSPRDPVMNYPAMAQDLVDTLDAQQIDKATFIGHSMGGKAVMALTALASDRIDKLVAIDIAPVDYHVRRHDEIFAAINAVSESDAQTRQQAAAIMRQHLNEEGVIQFLLKSFVDGEWRFNVPVLWDQYPHIVGWEKIPAWDHPALFIPGGNSPYVSEQYRDDLLAQFPQARAHVIAGAGHWVHAEKPDAVLRAIRRYLND	total protein half-life in vivo	5.19
MTDKLTSLRQYTTVVADTGDIAAMKLYQPQDATTNPSLILNAAQIPEYRKLIDDAVAWAKQQSNDRAQQIVDATDKLAVNIGLEILKLVPGRISTEVDARLSYDTEASIAKAKRLIKLYNDAGISNDRILIKLASTWQGIRAAEQLEKEGINCNLTLLFSFAQARACAEAGVFLISPFVGRILDWYKANTDKKEYAPAEDPGVVSVSEIYQYYKEHGYETVVMGASFRNIGEILELAGCDRLTIAPALLKELAESEGAIERKLSYTGEVKARPARITESEFLWQHNQDPMAVDKLAEGIRKFAIDQEKLEKMIGDLL [P0A870]	total protein half-life in vivo	5.35
MCTTCGCGEGNLYIEGDEHNPHSAFRSAPFAPAARPKMKITGIKAPEFTPSQTEEGDLHYGHGEAGTHAPGMSQRRMLEVEIDVLDKNNRLAERNRARFAARKQLVLNLVSSPGSGKTTLLTETLMRLKDSVPCAVIEGDQQTVNDAARIRATGTPAIQVNTGKGCHLDAQMIADAAPRLPLDDNGILFIENVGNLVCPASFDLGEKHKVAVLSVTEGEDKPLKYPHMFAAASLMLLNKVDLLPYLNFDVEKCIACAREVNPEIEIILISATSGEGMDQWLNWLETQRCA [P0AAN3]	total protein half-life in vivo	4.03
MEKGTVKWFNNAKGFGFICPEGGGEDIFAHYSTIQMDGYRTLKAGQSVQFDVHQGPKGNHASVIVPVEVEAAVA [P0A968]	total protein half-life in vivo	2.08
MNDAIPRPQAKTRKALTPLLEIRNLTKSYDGQHAVDDVSLTIYKGEIFALLGASGCGKSTLLRMLAGFEQPSAGQIMLDGVDLSQVPPYLRPINMMFQSYALFPHMTVEQNIAFGLKQDKLPKAEIASRVNEMLGLVHMQEFAKRKPHQLSGGQRQRVALARSLAKRPKLLLLDEPMGALDKKLRDRMQLEVVDILERVGVTCVMVTHDQEEAMTMAGRIAIMNRGKFVQIGEPEEIYEHPTTRYSAEFIGSVNVFEGVLKERQEDGLVLDSPGLVHPLKVDADASVVDNVPVHVALRPEKIMLCEEPPANGCNFAVGEVIHIAYLGDLSVYHVRLKSGQMISAQLQNAHRHRKGLPTWGDEVRLCWEVDSCVVLTV	total protein half-life in vivo	6.49
MKKMLLATALALLITGCAQQTFTVQNKQTAVAPKETITHHFFVSGIGQKKTVDAAKICGGAENVVKTETQQTFVNGLLGFITLGIYTPLEARVYCSK	total protein half-life in vivo	6.1
MTTKKADYIWFNGEMVRWEDAKVHVMSHALHYGTSVFEGIRCYDSHKGPVVFRHREHMQRLHDSAKIYRFPVSQSIDELMEACRDVIRKNNLTSAYIRPLIFVGDVGMGVNPPAGYSTDVIIAAFPWGAYLGAEALEQGIDAMVSSWNRAAPNTIPTAAKAGGNYLSSLLVGSEARRHGYQEGIALDVNGYISEGAGENLFEVKDGVLFTPPFTSSALPGITRDAIIKLAKELGIEVREQVLSRESLYLADEVFMSGTAAEITPVRSVDGIQVGEGRCGPVTKRIQQAFFGLFTGETEDKWGWLDQVNQ [P0AB80]	total protein half-life in vivo	4.7
MENLARFLSTTLKQLRQQRGWSLSRLAEATGVSKAMLGQIERNESSPTVATLWKIATGLNVPFSTFISPPQSATPSVYDPQQQAMVITSLFPYDPQLCFEHFSIQMASGAISESTPHEKGVIEHVVVIDGQLDLCVDGEWQTLNCGEGVRFAADVTHIYRNGGEQTVHFHSLIHYPRS	total protein half-life in vivo	5.69
MLTVKQIEAAKPKEKPYRLLDGNGLYLYVPVSGKKVWQLRYKIDGKEKILTVGKYPLMTLQEARDKAWTARKDISVGIDPVKAKKASSNNNSFSAIYKEWYEHKKQVWSVGYATELAKMFDDDILPIIGGLEIQDIEPMQLLEVIRRFEDRGAMERANKARRRCGEVFRYAIVTGRAKYNPAPDLADAMKGYRKKNFPFLPADQIPAFNKALATFSGSIVSLIATKVLRYTALRTKELRSMLWKNVDFENRIITIDASVMKGRKIHVVPMSDQVVELLTTLSSITKPVSEFVFAGRNDKKKPICENAVLLVIKQIGYEGLESGHGFRHEFSTIMNEHEWPADAIEVQLAHANGGSVRGIYNHAQYLDKRREMMQWWADWLDEKVE	total protein half-life in vivo	6.44

get_value(item= `MNMKKLATLVSAVALSATVSANAMAKDTIALVVSTLNNPFFVSLKDGAQKEADKLGYNLVVLDSQNNPAKELANVQDLTVRGTKILLINPTDSDAVGNAVKMANQANIPVITLDRQATKGEVVSHIASDNVLGGKIAGDYIAKKAGEGAKVIELQGIAGTSAARERGEGFQQAVAAHKFNVLASQPADFDRIKGLNVMQNLLTAHPDVQAVFAQNDEMALGALRALQTAGKSDVMVVGFDGTPDGEKAVNDGKLAATIAQLPDQIGAKGVETADKVLKGEKVQAKYPVDLKLVVKQ` , readout=total protein half-life in vivo) returns 3.56
